B1: Zinc finger homeobox protein 3, residues 2244 to 2299; numbered along this chain, Q15911 (parent)
chain: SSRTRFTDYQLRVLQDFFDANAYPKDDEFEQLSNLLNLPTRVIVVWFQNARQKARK

variants of: B1; assay: abundance fitness (aPCA) (normalised: wild type 0, dead -1); higher = more abundant; growth selection in yeast, the domain comes from the species named; settings: Homo sapiens
Classification field: Condition met = abundance fitness at or over 0.007; Condition not met = abundance fitness under 0.007.

See these solved cases before continuing.
INSERT INTO assay_data (variant_notation, answer_label) VALUES
  ('L14M', 'Condition not met'),
  ('Y23R', 'Condition not met'),
  ('N37P', 'Condition not met'),
  ('N37F', 'Condition not met'),
  ('N21K', 'Condition met');

Data request: Say whether `F6G` shows abundance fitness of 0.007 or more.
Data returned: Condition not met

Data request: Say whether `T7S` shows abundance fitness of 0.007 or more.
Data returned: Condition not met

Data request: Say whether `N21S` shows abundance fitness of 0.007 or more.
Data returned: Condition not met

Data request: Say whether `R5D` shows abundance fitness of 0.007 or more.
Data returned: Condition met

Data request: Say whether `F6E` shows abundance fitness of 0.007 or more.
Data returned: Condition not met

Data request: Say whether `R5C` shows abundance fitness of 0.007 or more.
Data returned: Condition met

Data request: Say whether `L11E` shows abundance fitness of 0.007 or more.
Data returned: Condition met

Data request: Say whether `F17W` shows abundance fitness of 0.007 or more.
Data returned: Condition not met

Data request: Say whether `P24R` shows abundance fitness of 0.007 or more.
Data returned: Condition not met

Data request: Say whether `A22Q` shows abundance fitness of 0.007 or more.
Data returned: Condition not met

Data request: Say whether `R3V` shows abundance fitness of 0.007 or more.
Data returned: Condition met

Data request: Say whether `R5T` shows abundance fitness of 0.007 or more.
Data returned: Condition met
